Data origin, for the record: patent US8759342B2

Molecular target: rat GPR14 (U-II receptor) (Rattus norvegicus, UniProt P49684)
Construct: expressed in transfected cells
Sequence (P49684 whole entry): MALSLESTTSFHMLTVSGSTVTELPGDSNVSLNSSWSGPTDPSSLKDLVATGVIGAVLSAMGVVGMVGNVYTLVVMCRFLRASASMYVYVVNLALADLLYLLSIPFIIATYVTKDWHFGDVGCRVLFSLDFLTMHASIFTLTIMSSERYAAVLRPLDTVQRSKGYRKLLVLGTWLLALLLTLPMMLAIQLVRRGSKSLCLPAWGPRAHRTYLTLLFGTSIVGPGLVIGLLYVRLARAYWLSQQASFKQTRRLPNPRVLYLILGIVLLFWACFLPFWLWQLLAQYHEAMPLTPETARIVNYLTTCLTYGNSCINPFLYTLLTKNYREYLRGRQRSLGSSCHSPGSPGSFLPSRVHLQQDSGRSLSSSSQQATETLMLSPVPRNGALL
Assay: Calcium flux assay (FLIPR)
Type: cell-based
Settings: Inhibition of acetyl-cyclic[Cys-Phe-Trp-Lys-(2-Nal)-Cys]-NH2 (1 nM) induced Ca2+ mobilization (FLIPR) in CHO cells transfected with rat UII receptor; 5 min incubation
readoutType: IC50
Mention the unit after the number when you answer.

[[record]]
compound = "CC(C)(C)OC(=O)N1CCN(CCNC(=O)c2ccccc2C2CC3CCC(C2)N3CCN2C(=O)COc3ccccc32)CC1 (stereo not drawn) [Cpd 99]"
studytarget = "rat GPR14 (U-II receptor) (Rattus norvegicus, UniProt P49684)"
result = "1.1 µM"

[[record]]
compound = "O=C(NCCN1CCNCC1)c1cc(Cl)ccc1C1CCN(CCN2C(=O)COc3ccccc32)CC1 [Cpd 73]"
studytarget = "rat GPR14 (U-II receptor) (Rattus norvegicus, UniProt P49684)"
result = "1.9 µM"

[[record]]
compound = "CC(C)(C)OC(=O)NCCCCCNC(=O)c1cc(Cl)ccc1C1CC2CCC(C1)N2CCN1C(=O)COc2ccccc21 (stereo not drawn) [Cpd 100]"
studytarget = "rat GPR14 (U-II receptor) (Rattus norvegicus, UniProt P49684)"
result = "0.45 µM"

[[record]]
compound = "O=C(NCC1CCN(C(=O)OCc2ccccc2)CC1)c1cc(Cl)ccc1C1CCN(CCN2C(=O)COc3ccccc32)CC1 [Cpd 63]"
studytarget = "rat GPR14 (U-II receptor) (Rattus norvegicus, UniProt P49684)"
result = "0.4 µM"

[[record]]
compound = "O=C(NCCN1CCCC1)c1ccccc1C1CCN(CCN2C(=O)COc3ccccc32)CC1 [Cpd 30]"
studytarget = "rat GPR14 (U-II receptor) (Rattus norvegicus, UniProt P49684)"
result = "32 µM"


For reference, reported IC50 for O=C(NCCc1ccccc1)c1cc(Cl)ccc1C1CCN(CCN2C(=O)COc3ccccc32)CC1 [Cpd 57] stands at 1.3 µM
